Attribution: paper PMC6016062

# System: T1, human O-GlcNAc transferase (human, UniProt O15294 1-1046)
# T1 sequence (looked up): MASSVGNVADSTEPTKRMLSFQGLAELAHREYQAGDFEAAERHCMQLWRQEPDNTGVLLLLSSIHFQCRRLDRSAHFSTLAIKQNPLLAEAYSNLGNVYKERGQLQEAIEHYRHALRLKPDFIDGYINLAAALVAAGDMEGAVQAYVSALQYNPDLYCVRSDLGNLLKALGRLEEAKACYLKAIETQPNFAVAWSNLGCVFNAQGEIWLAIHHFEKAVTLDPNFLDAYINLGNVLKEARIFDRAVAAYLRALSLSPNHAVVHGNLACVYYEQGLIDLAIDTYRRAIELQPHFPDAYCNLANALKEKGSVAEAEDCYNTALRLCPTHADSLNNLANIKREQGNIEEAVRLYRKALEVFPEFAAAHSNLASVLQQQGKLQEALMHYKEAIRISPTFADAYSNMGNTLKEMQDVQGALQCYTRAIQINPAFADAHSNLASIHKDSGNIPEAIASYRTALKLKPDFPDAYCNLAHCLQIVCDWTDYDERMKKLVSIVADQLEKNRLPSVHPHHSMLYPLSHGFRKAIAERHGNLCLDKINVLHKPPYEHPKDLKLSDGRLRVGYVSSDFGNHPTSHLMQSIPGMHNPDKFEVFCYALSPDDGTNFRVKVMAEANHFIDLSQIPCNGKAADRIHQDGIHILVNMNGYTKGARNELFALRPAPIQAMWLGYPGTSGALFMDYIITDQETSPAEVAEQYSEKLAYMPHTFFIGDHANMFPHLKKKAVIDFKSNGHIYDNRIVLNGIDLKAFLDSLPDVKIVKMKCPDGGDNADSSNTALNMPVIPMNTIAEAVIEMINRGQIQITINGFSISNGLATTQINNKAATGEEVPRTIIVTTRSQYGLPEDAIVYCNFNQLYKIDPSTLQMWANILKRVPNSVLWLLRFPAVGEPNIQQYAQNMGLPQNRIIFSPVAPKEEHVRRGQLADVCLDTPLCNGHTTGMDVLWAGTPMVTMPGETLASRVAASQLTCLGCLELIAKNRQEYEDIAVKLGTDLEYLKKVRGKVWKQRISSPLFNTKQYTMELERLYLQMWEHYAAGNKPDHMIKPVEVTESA
# Test method notes: fluorescence polarisation; competition: displacement of the fluorescent probe 17 from hOGT by unlabeled conjugates, Ki derived
# Condition parameters: both partners purified
No end group written: not given here.
Measured property: pKi
Scale: pKi equals -log10([C]), with [C] in mol/L.

Study these solved cases before continuing.
INSERT INTO assay_data (binder, recorded_number) VALUES
  ('KENSPAVTPVC(S‑propyl‑UDP)TA [S-linked UDP-peptide conjugate 38, KENSPAVTPVC(S-propyl-UDP)TA]', 5.74),
  ('VTPVC(S‑propyl‑UDP)SA [S-linked UDP-peptide conjugate 31, VTPVC(S-propyl-UDP)SA]', 5.92),
  ('PVFTC(S‑propyl‑UDP)RS [S-linked UDP-peptide conjugate 33, PVFTC(S-propyl-UDP)RS]', 4.90),
  ('VTPVC(S‑propyl‑UDP)TA [S-linked UDP-peptide conjugate 6, VTPVC(S-propyl-UDP)TA]', 5.89),
  ('VTPVC(S‑propyl‑UDP)TATH [S-linked UDP-peptide conjugate 34, VTPVC(S-propyl-UDP)TATH]', 4.90),
  ('PVC(S‑propyl‑UDP)TATHSLSRLH [S-linked UDP-peptide conjugate 37, PVC(S-propyl-UDP)TATHSLSRLH]', 4.10);

Asked: Consider the binder SVPYC(S‑propyl‑UDP)SAQS [S-linked UDP-peptide conjugate 35, SVPYC(S-propyl-UDP)SAQS] and give its measured pKi.
Given back: 4.82

Asked: Further, for VPTVC(S‑propyl‑UDP)TA [S-linked UDP-peptide conjugate 29, VPTVC(S-propyl-UDP)TA] ?
Given back: 4.89

Asked: Same for SVPYC(S‑propyl‑UDP)SA [S-linked UDP-peptide conjugate 30, SVPYC(S-propyl-UDP)SA]
Given back: 5.64

Asked: Let us now turn to PVFTC(S‑propyl‑UDP)RSAA [S-linked UDP-peptide conjugate 36, PVFTC(S-propyl-UDP)RSAA]
Given back: 4.25
